Would you kindly list IC50 for each of these molecules?
Target: JAK2 (recombinant purified GST-tagged catalytic domain) (Homo sapiens (Human))
Test: biochemical
Write your answer as a measured quantity: the number, then the unit.

## Task Dear colleague, please send me the reported IC50 for CC(C)(C)OC(=O)NC1CC[C@H](C#N)C(n2cc(C(N)=O)c(Nc3ccc(F)cc3)n2)C1 (mixture of isomers) [Example 11-5] when you can.
## Result 22 nM

## Task Dear colleague, please send me the reported IC50 for CC(C)(O)C1CN([C@@H]2CC[C@H](n3cc(C(N)=O)c(Nc4ccc(C(F)(F)F)cc4)n3)[C@@H](C#N)C2)C1 (single isomer, unassigned) when you can.
## Result 49 nM

## Task Dear colleague, please send me the reported IC50 for CN[C@@H]1CC[C@H](n2cc(C(N)=O)c(Nc3ccc(Cl)c(F)c3)n2)[C@@H](C#N)C1 (single isomer, unassigned) when you can.
## Result 35 nM

* * *

Target: JAK2 (recombinant purified GST-tagged catalytic domain) (Homo sapiens (Human), UniProt O60674)
Sequence (O60674 849-1124): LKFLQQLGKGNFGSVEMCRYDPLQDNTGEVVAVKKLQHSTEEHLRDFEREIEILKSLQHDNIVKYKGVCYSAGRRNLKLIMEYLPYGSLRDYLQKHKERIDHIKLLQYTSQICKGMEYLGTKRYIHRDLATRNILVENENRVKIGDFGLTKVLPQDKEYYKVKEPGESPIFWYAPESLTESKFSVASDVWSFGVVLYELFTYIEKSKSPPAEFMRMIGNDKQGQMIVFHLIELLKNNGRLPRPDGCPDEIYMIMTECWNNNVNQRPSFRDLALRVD
Assay: biochemical
PROPERTY: IC50 (nM)
Report the value in nM with no unit label.

## Task Dear colleague, please send me the reported IC50 for N#C[C@H]1C[C@H](NCC(F)F)CC[C@@H]1n1cc(C(N)=O)c(Nc2ccnc(F)c2)n1 (single isomer, unassigned) when you can.
## Result 53

## Task Dear colleague, please send me the reported IC50 for N#C[C@H]1C[C@H](N2CCC2)CC[C@@H]1n1cc(C(N)=O)c(Nc2ccc(C(F)(F)F)cc2)n1 (single isomer, unassigned) when you can.
## Result 51

## Task Dear colleague, please send me the reported IC50 for N#C[C@@H]1C[C@H](C(=O)NC2CC(F)(F)C2)CC[C@H]1n1cc(C(N)=O)c(Nc2ccc(Cl)cc2)n1 (single isomer, unassigned) when you can.
## Result 136

## Task Dear colleague, please send me the reported IC50 for CC1(C)CN([C@H]2CC[C@H](n3cc(C(N)=O)c(Nc4ccc(C(F)(F)F)cc4)n3)[C@@H](C#N)C2)C1 (single isomer, unassigned) when you can.
## Result 39

## Task Dear colleague, please send me the reported IC50 for N#C[C@H]1CC(NCC2CCS(=O)(=O)C2)CC[C@@H]1n1cc(C(N)=O)c(Nc2ccc(S(=O)(=O)C(F)(F)F)cc2)n1 (single isomer, unassigned) when you can.
## Result 10

## Task Dear colleague, please send me the reported IC50 for N#C[C@H]1C[C@H](NCc2ccccc2)CC[C@@H]1n1cc(C(N)=O)c(Nc2ccnc(F)c2)n1 (single isomer, unassigned) when you can.
## Result 56

## Task Dear colleague, please send me the reported IC50 for N#C[C@H]1CCCC[C@@H]1n1cc(C(N)=O)c(Nc2ccc(F)c(F)c2)n1 (racemic) when you can.
## Result 34

## Task Dear colleague, please send me the reported IC50 for N#C[C@H]1CC(NC2CC2)CCC1n1cc(C(N)=O)c(Nc2ccc(S(=O)(=O)C(F)(F)F)cc2)n1 (mixture of isomers) when you can.
## Result 7

## Task Dear colleague, please send me the reported IC50 for N#C[C@H]1CCCC[C@@H]1n1cc(C(N)=O)c(Nc2ccc(S(=O)(=O)NCc3ccc(Cl)cc3)cc2)n1 (single isomer, unassigned) when you can.
## Result 4

## Task Dear colleague, please send me the reported IC50 for N#C[C@H]1CCCC[C@@H]1n1cc(C(N)=O)c(Nc2ccc(S(=O)(=O)Nc3ccc4cccnc4c3)cc2)n1 (single isomer, unassigned) when you can.
## Result 33

## Task Dear colleague, please send me the reported IC50 for N#C[C@H]1C[C@@H](NCC(F)(F)F)CCC1n1cc(C(N)=O)c(Nc2ccc(S(=O)(=O)C(F)(F)F)cc2)n1 (mixture of isomers) when you can.
## Result 6

## Task Dear colleague, please send me the reported IC50 for N#C[C@H]1C[C@H](NC2COC2)CC[C@@H]1n1cc(C(N)=O)c(Nc2ccc(CC(F)(F)F)cc2)n1 (single isomer, unassigned) when you can.
## Result 4

* * *

Would you kindly list IC50 for each of these molecules?
Molecular target: JAK2 (recombinant purified GST-tagged catalytic domain) (Homo sapiens (Human))
Assay: biochemical
Report the value in nM with no unit label.

## Task Dear colleague, please send me the reported IC50 for CC(C)(c1ccc(Nc2nn([C@H]3CCCC[C@@H]3C#N)cc2C(N)=O)cc1F)[C@@H](O)C(F)(F)F (single isomer, unassigned) when you can.
## Result 4

## Task Dear colleague, please send me the reported IC50 for N#C[C@H]1C[C@@H](N2CC3(CCC3)C2)CC[C@@H]1n1cc(C(N)=O)c(Nc2ccnc(F)c2)n1 (single isomer, unassigned) when you can.
## Result 36

## Task Dear colleague, please send me the reported IC50 for N#C[C@@H]1C[C@H](C(=O)NC2COC2)CC[C@H]1n1cc(C(N)=O)c(Nc2ccc(Cl)cc2)n1 (single isomer, unassigned) when you can.
## Result 38

* * *

Would you kindly list pIC50 for each of these molecules?
Target: JAK1 (recombinant purified GST-tagged catalytic domain) (Homo sapiens (Human))
Sequence (P23458 875-1153): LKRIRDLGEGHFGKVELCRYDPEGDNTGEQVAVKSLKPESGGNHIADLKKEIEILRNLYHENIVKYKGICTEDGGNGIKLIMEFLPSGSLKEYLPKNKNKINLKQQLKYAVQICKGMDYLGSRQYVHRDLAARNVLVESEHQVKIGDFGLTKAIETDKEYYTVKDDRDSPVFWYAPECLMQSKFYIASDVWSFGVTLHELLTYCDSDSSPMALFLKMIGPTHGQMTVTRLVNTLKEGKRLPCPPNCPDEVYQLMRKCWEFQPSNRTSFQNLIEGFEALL
Experiment: biochemical
Scale: pIC50 equals -log10([C]), with [C] in mol/L.

## Task Write down the reported pIC50 (system: JAK1 (recombinant purified GST-tagged catalytic domain) (Homo sapiens (Human))) of N#C[C@H]1C[C@H](OCC2CC2)CC[C@@H]1n1cc(C(N)=O)c(Nc2ccnc(F)c2)n1 (single isomer, unassigned) [Example 26-1]
## Result 8.70

## Task Write down the reported pIC50 (system: JAK1 (recombinant purified GST-tagged catalytic domain) (Homo sapiens (Human))) of N#C[C@@H]1C[C@@H](NC2COC2)CC[C@H]1n1cc(C(N)=O)c(Nc2ccc(C(F)(F)F)cc2)n1 (single isomer, unassigned) [Example 30-17]
## Result 9.07

## Task Write down the reported pIC50 (system: JAK1 (recombinant purified GST-tagged catalytic domain) (Homo sapiens (Human))) of N#C[C@@H]1CCCC[C@H]1n1cc(C(N)=O)c(Nc2ccc(S(=O)(=O)NCC3CC3)cc2)n1 (single isomer, unassigned) [Example 17-66]
## Result 9.48

## Task Write down the reported pIC50 (system: JAK1 (recombinant purified GST-tagged catalytic domain) (Homo sapiens (Human))) of N#C[C@@H]1C[C@H](C(=O)NC2COC2)CC[C@H]1n1cc(C(N)=O)c(Nc2ccc(Cl)cc2)n1 (single isomer, unassigned) [Example 35-13]
## Result 8.30

## Task Write down the reported pIC50 (system: JAK1 (recombinant purified GST-tagged catalytic domain) (Homo sapiens (Human))) of CN([C@H]1CC[C@H](n2cc(C(N)=O)c(Nc3ccc(Cl)cc3)n2)[C@@H](C#N)C1)S(C)(=O)=O (racemic) [Example 38-6]
## Result 9.00

## Task Write down the reported pIC50 (system: JAK1 (recombinant purified GST-tagged catalytic domain) (Homo sapiens (Human))) of N#C[C@H]1C[C@H](O)CC[C@@H]1n1cc(C(N)=O)c(Nc2ccccc2)n1 (single isomer, unassigned) [Example 25-29];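 note: biochemical assay with HTRF read-out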
## Result 8.70

* * *

Molecular target: JAK2 (recombinant purified GST-tagged catalytic domain) (Homo sapiens (Human), UniProt O60674);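 note: biochemical JAK kinase assay with HTRF detection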
Experiment: biochemical
Would you kindly list IC50 for each of these molecules?

## Task Dear colleague, please send me the reported IC50 for CC1(O)CN([C@@H]2CC[C@H](n3cc(C(N)=O)c(Nc4ccc(C(F)(F)F)cc4)n3)[C@@H](C#N)C2)C1 (single isomer, unassigned) when you can.
## Result 9 nM

## Task Dear colleague, please send me the reported IC50 for N#C[C@H]1C[C@H](N2C[C@@H]3[C@@H](CO)[C@@H]3C2)CC[C@@H]1n1cc(C(N)=O)c(Nc2ccc(C(F)(F)F)cc2)n1 (single isomer, unassigned) when you can.
## Result 22 nM

## Task Dear colleague, please send me the reported IC50 for C[C@H](N[C@H]1CC[C@H](n2cc(C(N)=O)c(Nc3ccc(OC(F)(F)F)cc3)n2)[C@@H](C#N)C1)C1CC1 (single isomer, unassigned) when you can.
## Result 65 nM

## Task Dear colleague, please send me the reported IC50 for CC1(CN[C@@H]2CC[C@H](n3cc(C(N)=O)c(Nc4ccc(C(F)(F)F)cc4)n3)[C@@H](C#N)C2)COC1 (single isomer, unassigned) when you can.
## Result 21 nM

## Task Dear colleague, please send me the reported IC50 for CN([C@@H]1CC[C@H](n2cc(C(N)=O)c(Nc3ccc(Cl)cc3)n2)[C@@H](C#N)C1)S(C)(=O)=O (racemic) when you can.
## Result 46 nM

## Task Dear colleague, please send me the reported IC50 for CN(C)[C@@H]1CC[C@H](n2cc(C(N)=O)c(Nc3ccnc(F)c3)n2)[C@@H](C#N)C1 (single isomer, unassigned) when you can.
## Result 254 nM

## Task Dear colleague, please send me the reported IC50 for N#C[C@H]1CCCC[C@@H]1n1cc(C(N)=O)c(Nc2ccc(C(F)(F)F)nc2)n1 (single isomer, unassigned) [Example 17-101] when you can.
## Result 9 nM

## Task Dear colleague, please send me the reported IC50 for COc1cccc(N2CCN(S(=O)(=O)c3ccc(Nc4nn([C@H]5CCCC[C@@H]5C#N)cc4C(N)=O)cc3)CC2)c1 (single isomer, unassigned) when you can.
## Result 24 nM

## Task Dear colleague, please send me the reported IC50 for CN(C)[C@@H]1CC[C@H](n2cc(C(N)=O)c(Nc3ccc(OC(F)(F)F)cc3)n2)[C@@H](C#N)C1 (single isomer, unassigned) when you can.
## Result 92 nM

## Task Dear colleague, please send me the reported IC50 for CS(=O)(=O)c1ccc(Nc2nn([C@H]3CC[C@@H](O)C[C@@H]3C#N)cc2C(N)=O)cc1 (single isomer, unassigned) when you can.
## Result 3 nM

## Task Dear colleague, please send me the reported IC50 for CN(C)CC1CCC(n2cc(C(N)=O)c(Nc3ccc(F)cc3)n2)[C@H](C#N)C1 (mixture of isomers) when you can.
## Result 357 nM

## Task Dear colleague, please send me the reported IC50 for N#C[C@H]1C[C@@H](NCC(F)F)CCC1n1cc(C(N)=O)c(Nc2ccc(S(=O)(=O)C(F)(F)F)cc2)n1 (mixture of isomers) when you can.
## Result 11 nM

Values from patent US8962608B2
